Test system: HOP-92 NSCLC
Assay: NCI-60 one-dose screen, 48 h (100 = growth as untreated, 0 = no growth, -100 = all killed)
Conditions: 10 µM unless noted
Compounds without any hit were thinned out: in the full panel of roughly 83,000, 20% have a hit.
QUANTITY_MEASURED: growth (%)

>>> print(df.to_string())
                                   molecule  observed_measurement
0  O=C(O)C1CCCCN1c1nc(Cl)nc(Cl)n1 (stereo not given)                   106
1  CC(C)(C)n1cc(-c2ccnc(NCCCNS(=O)(=O)c3ccccc3)c2)c(-c2cccc(O)c2)n1                  77.7
2  S=c1[nH]nc(-c2cc3ccc2CCc2ccc(cc2)CC3)n1-c1ccccc1                  98.4
3  COc1ccc(S(=O)(=O)n2ccc(-c3ccc4c(c3)CCC(C)(C)O4)n2)cc1OC                  58.3
4  COc1ccc(-c2ccc(-c3ccc(C(=N)N)s3)s2)cc1Cl                  16.5

* * *

Test system: A498 renal
Test: NCI-60 one-dose screen, 48 h (100 = growth as untreated, 0 = no growth, -100 = all killed)
Conditions: 10 µM unless noted
This is part of a sample that, as a whole, favours compounds with a hit. Of some 83,000 tested, about 20% had one in any assay.
growth vs 80%: less than gives fulfilled; not less than gives not fulfilled.

>>> print(df.to_string())
                                    molecule  tested_system    group_label
 0    Fc1ccc(CNCCNc2ncnc3c2cnn3-c2ccccc2)cc1     A498 renal      fulfilled
 1  O=[N+]([O-])c1cc(S(=O)(=O)Oc2ccccc2)ccc1Cl     A498 renal  not fulfilled
 2  Cn1c(=O)cc(NC(=O)CN2CCN(c3cc4c(cc3F)c(=O)c(C(=O)O)cn4C3CC3)CC2)[nH]c1=O     A498 renal  not fulfilled
 3  Cn1cc(-c2cnc3ccc(NC(=O)Nc4ccc(F)c(Br)c4)cc3n2)cn1     A498 renal      fulfilled
 4  Cc1ccc(-c2cc3nc(C(Cl)Cl)nc(-c4cccnc4)n3n2)cc1     A498 renal      fulfilled
 5            O=c1c2sc3ncccc3c2nnn1-c1ccccc1     A498 renal  not fulfilled
 6  COc1ccc(-c2nc3sccn3c2/C=C/C(=O)c2cc(F)cc(F)c2)cc1     A498 renal      fulfilled
 7  COc1cc(C(=O)/C=C/c2ccc3nc(-c4cc(F)cc(F)c4)sc3c2)cc(OC)c1OC     A498 renal  not fulfilled
 8  O=C(N/N=C/C=C\c1ccccc1)C(=O)N/N=C/C=C/c1ccccc1     A498 renal  not fulfilled
 9  CCOC(=O)c1c(NS(=O)(=O)c2ccc(C)cc2)sc2c1CCC1(C2)OCCO1     A498 renal  not fulfilled
10  COc1ccncc1S(=O)(=O)NC(=O)Nc1ccc(Cl)c(Cl)c1     A498 renal  not fulfilled
11  CCN(CC)CCOC(=O)C(c1ccccc1)(c1ccccc1)C(C)C     A498 renal      fulfilled
12        CCOC(=O)/C(C#N)=C1/C(=O)Nc2ccccc21     A498 renal  not fulfilled
13  C/C=C(\C)C(C(=O)NC1CCCCC1)N(C(=O)C1CCc2cc(F)ccc2O1)c1ccc(Cl)cc1 (stereo not given)     A498 renal  not fulfilled
14  CC(C)(C)c1[nH]nc2c1C(c1cc3ccccc3[nH]c1=O)Nc1cc(C(=O)Nc3ccc(Cl)cc3)ccc1N2 (stereo not given)     A498 renal      fulfilled
15  COc1ccc(-c2ccc(C)n2-c2ccc(-c3nc4cc(Cl)ccc4s3)cc2)cc1     A498 renal  not fulfilled
16  CO[C@H]1NC(=O)N(S(=O)(=O)c2ccc(Cl)cc2)[C@@H]1OC     A498 renal  not fulfilled
17  C=C1C(=O)O[C@H]2[C@H]1CC/C(Cn1cc(CNC(=O)Cc3cn(C(=O)c4ccc(Cl)cc4)c4ccc(OC)cc34)nn1)=C\CC[C@@]1(C)O[C@@H]21     A498 renal      fulfilled
18  CCCCCCCC[C@@H](O)CC(=O)N[C@@H](CC(N)=O)C(=O)N[C@@H](CCC(N)=O)C(=O)N[C@@H](CC(=O)c1cc(C)cc(O)c1C(=O)c1c(O)cccc1O)CC(C)C     A498 renal      fulfilled

* * *

Test system: IGROV1 ovarian
Experiment: NCI-60 one-dose screen, 48 h
Conditions: 10 µM unless noted
This is part of a sample that, as a whole, favours compounds with a hit. Of some 83,000 tested, about 20% had one in any assay. Activity calls are given as the source filed them. The calls were made as follows: active = growth percent below 10; inactive = the rest.
Outcome codes: t for active, f for inactive

>>> df
                                   compound  group_label
0  O=C(/C=C\c1cccc([N+](=O)[O-])c1)/C=C/c1cccc([N+](=O)[O-])c1            f
1  C/C(=N/NC(=S)Nc1ccccc1)c1nc2ccc(Cl)cc2[nH]1            t
2  c1ccc(-c2nc(N3CCNCC3)c3nc(-c4ccccc4)oc3n2)cc1            t
3  O=C(Nc1ccncc1)C(=O)c1cn(S(=O)(=O)c2ccccc2F)c2ccccc12            f
4  CCN(CC)CCC(CNc1ccnc2cc(Cl)ccc12)c1ccccc1 (stereo not given)            f

* * *

Tested on: SNB-19 CNS
Assay: NCI-60 one-dose screen, 48 h (100 = growth as untreated, 0 = no growth, -100 = all killed)
Conditions: 10 µM unless noted
About 83,000 compounds went through this panel and 20% of them were active in at least one assay; those are over-represented in the sample as a whole.
Classification field: fulfilled = growth at or over 90%; not fulfilled = growth under 90%.

>>> df
                                   compound  tested_system    group_label
0  O=C(NNC(=O)N1c2ccccc2C=Cc2ccccc21)c1ccc2ccccc2c1     SNB-19 CNS      fulfilled
1  O=C(/C=C/c1cc(-c2ccc3c(c2)OCO3)n[nH]1)c1ccc2c(c1)OCO2     SNB-19 CNS  not fulfilled
2                       CNC(=S)NNC(=O)C1CC1     SNB-19 CNS      fulfilled
3              CCCCCCCCCCCCCCCCNC(=O)OC(C)C     SNB-19 CNS      fulfilled
4  COc1cc(C2C3=C(COC3=O)Nc3cc4c(cc32)OCO4)cc2c1OCO2 (stereo unspecified)     SNB-19 CNS  not fulfilled
5  N=C(N)c1ccc(-c2ccc(-c3cncc4ccccc34)s2)cc1F     SNB-19 CNS  not fulfilled
6  COc1cc(NC(N)=NCCC(C)(C)c2ccc(C(F)(F)F)cc2)ncc1C#N     SNB-19 CNS  not fulfilled
7  COc1ccc(-c2ccc(-c3ccc(C(=N)N)s3)s2)cc1Cl     SNB-19 CNS  not fulfilled
8  COc1ccc(-c2c(N)n[nH]c2-c2cc(OC)c(OC)c(OC)c2)cc1     SNB-19 CNS  not fulfilled
9  COC1=C(OC)C(=O)C(CCCCCCCCCC[P+](c2ccccc2)(c2ccccc2)c2ccccc2)=C(C)C1=O     SNB-19 CNS  not fulfilled

* * *

# growth values compiled below
Tested on: OVCAR-8 ovarian
Assay: NCI-60 one-dose screen, 48 h (100 = growth as untreated, 0 = no growth, -100 = all killed)
Details: 10 µM unless noted
About 83,000 compounds went through this panel and 20% of them were active in at least one assay; those are over-represented in the sample as a whole.
QUANTITY_MEASURED: growth (%)

>>> print(df.to_string())
                                   compound    tested_system  unit_label  observed_measurement
0  C/C=C/C1=CN2C(=O)c3cc(OC4OC(C)C(NC)C(C)(O)C4O)c(C)cc3N=C[C@@H]2C1 (some centres undefined)  OVCAR-8 ovarian           %                  12.2
1  COc1cc(/C=C/C(=O)c2c(C)nc3ccccc3c2C)ccc1OCCCCOc1cc2c(cc1OC)C(=O)N1CCC[C@H]1C=N2  OVCAR-8 ovarian           %                 -7.99
2  CCN1CCN(CC(=O)N2c3cccc4cccc(c34)N(C(=O)CN3CCN(CC)CC3)C2c2cn(-c3ccccc3)nc2-c2cccc([N+](=O)[O-])c2)CC1  OVCAR-8 ovarian           %                 -9.32
3  O=C(/C=C\c1cccc([N+](=O)[O-])c1)/C=C/c1cccc([N+](=O)[O-])c1  OVCAR-8 ovarian           %                  80.7
4  O=C(c1ccccc1)C1OC1c1ccc([N+](=O)[O-])cc1 (centres undefined)  OVCAR-8 ovarian           %                  68.9
5  O=C(O)c1cn(C2CC2)c2cc(N3CCN(C(=O)/C=C/c4ccc(Cl)cc4)CC3)c(F)cc2c1=O  OVCAR-8 ovarian           %                  80.5
6  CCOC(=O)C1CCNC(=O)C1=O (centres undefined)  OVCAR-8 ovarian           %                   110
7  O=C1c2c(c3c4ccccc4n(CCCCCCBr)c3c3[nH]c4ccccc4c23)C(=O)N1O  OVCAR-8 ovarian           %                 0.342
8           COc1cc([N+](=O)[O-])c2ncccc2c1O  OVCAR-8 ovarian           %                  78.5

Origin of the recorded values: PubChem BioAssay (NCI)
